R3 EC50 values, listed per item
Molecular target: T1, PACAP-R3 (human, UniProt P41587 24-438)
T1 sequence (looked up): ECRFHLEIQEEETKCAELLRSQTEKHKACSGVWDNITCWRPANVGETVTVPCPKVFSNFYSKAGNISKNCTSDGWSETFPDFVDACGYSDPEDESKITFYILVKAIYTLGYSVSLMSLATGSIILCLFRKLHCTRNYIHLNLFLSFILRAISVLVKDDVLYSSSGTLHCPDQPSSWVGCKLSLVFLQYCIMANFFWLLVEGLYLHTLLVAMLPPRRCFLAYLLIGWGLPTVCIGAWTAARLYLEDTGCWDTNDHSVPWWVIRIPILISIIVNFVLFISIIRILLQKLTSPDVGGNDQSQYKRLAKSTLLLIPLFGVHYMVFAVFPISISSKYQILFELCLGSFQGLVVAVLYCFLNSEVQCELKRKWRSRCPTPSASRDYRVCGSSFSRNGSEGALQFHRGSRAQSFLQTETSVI
Assay: cell-based or functional assay
assay_endpoint: R3 EC50

binder="HSDAVFTDNYTRLRKQMAVKKYLNSIKKK [R3P58]" assay_endpoint="R3 EC50" result="0.32 nM"
binder="HSDAVFTDNYTRLRKQLAAKKYLNDIKKQ [R3P34]" assay_endpoint="R3 EC50" result="1.4 nM"
binder="HSDAVFTDNYTRLRKQMAVKKYLNSIKK [R3P41]" assay_endpoint="R3 EC50" result="0.08 nM"
binder="HSDAVFTDNYTRLRKQLAVKKYLNSIKKGGT [R3P25]" assay_endpoint="R3 EC50" result="0.7 nM"
binder="HSDAVFTDNYTRLRKQMAAKKYLNSIKNLR [R3P142]" assay_endpoint="R3 EC50" result="0.2 nM"
binder="HSDAVFTDNYTRLRKQMAVKKYLNDILN [R3P48]" assay_endpoint="R3 EC50" result="0.13 nM"
binder="HSDAVFTDNYTRLRKQIAAKKYLQTIKK [R3P61]" assay_endpoint="R3 EC50" result="0.8 nM"
binder="HSDAVFTDNYTRLRKQLAAKKYLNDIKKG [R3P32]" assay_endpoint="R3 EC50" result="0.4 nM"
binder="HSDAVFTDNYTRLRKQMAAKKYLNSIKNKK [R3P161]" assay_endpoint="R3 EC50" result="0.2 nM"
binder="HSDAVFTDNYTRLRKQMAVKKYLNSIKKGGT [R3P9]" assay_endpoint="R3 EC50" result="2 nM"
